# assayExplanation: Cytotoxicity against African green monkey Vero cells
# Assay type: cell-based
# testContext: chlorocebus sabaeus
The label is 1 (yes) for CC50 below 50 µM and 0 (no) for CC50 equal to or exceeding 50 µM.

Input line: Does the reported CC50 of the following compound sit strictly below 50 µM? NCCOc1nn(Cc2ccccc2)c2ccc([N+](=O)[O-])cc12
Output line: 0 (no)

Input line: Does the reported CC50 of the following compound sit strictly below 50 µM? CN(C)CCCCCOc1nn(Cc2ccccc2)c2ccc([N+](=O)[O-])cc12
Output line: 0 (no)

Input line: Does the reported CC50 of the following compound sit strictly below 50 µM? NCCCCCOc1nn(Cc2ccccc2)c2ccc([N+](=O)[O-])cc12
Output line: 0 (no)

Input line: Does the reported CC50 of the following compound sit strictly below 50 µM? NCCCOc1nn(Cc2ccccc2)c2ccc([N+](=O)[O-])cc12
Output line: 1 (yes)

Input line: Does the reported CC50 of the following compound sit strictly below 50 µM? Cc1ncc([N+](=O)[O-])n1CCO
Output line: 0 (no)

Input line: Does the reported CC50 of the following compound sit strictly below 50 µM? CNCCOc1nn(Cc2ccccc2)c2ccc([N+](=O)[O-])cc12
Output line: 0 (no)

Input line: Does the reported CC50 of the following compound sit strictly below 50 µM? CNCCCCCOc1nn(Cc2ccccc2)c2ccc([N+](=O)[O-])cc12
Output line: 1 (yes)

====

# assayExplanation: Selectivity index, ratio of CC50 for African green monkey Vero cells to IC50 for Trichomonas vaginalis IR78 trophozoites
# Assay type: toxicity
# testContext: read-out: Ratio CC50/IC50
// values below are reported selectivity ratio
Reply with the value as a number alone.

# chemicalString, recordedResult
records = [
    ("CNCCCCCOc1nn(Cc2ccccc2)c2ccc([N+](=O)[O-])cc12", 48),
    ("NCCCCCOc1nn(Cc2ccccc2)c2ccc([N+](=O)[O-])cc12", 1),
]

Input line: Looking for the measured selectivity ratio of NCCCOc1nn(Cc2ccccc2)c2ccc([N+](=O)[O-])cc12 , can you help?
Output line: 35.6

Input line: Looking for the measured selectivity ratio of CNCCOc1nn(Cc2ccccc2)c2ccc([N+](=O)[O-])cc12 , can you help?
Output line: 2.3

Input line: Looking for the measured selectivity ratio of CN(C)CCCCCOc1nn(Cc2ccccc2)c2ccc([N+](=O)[O-])cc12 , can you help?
Output line: 0.94

====

# assayExplanation: Selectivity index, ratio of CC50 for African green monkey Vero cells to IC50 for Trichomonas vaginalis JH31A#4 trophozoites
# Assay type: toxicity
# testContext: read-out: Ratio CC50/IC50
// values below are reported selectivity ratio
Reply with the value as a number alone.

The following compounds have reported results that may help.
# chemicalString, selectivity ratio
data = [
    ("NCCCOc1nn(Cc2ccccc2)c2ccc([N+](=O)[O-])cc12", 2.4),
    ("NCCCCCOc1nn(Cc2ccccc2)c2ccc([N+](=O)[O-])cc12", 13.7),
]

Input line: Looking for the measured selectivity ratio of CNCCCCCOc1nn(Cc2ccccc2)c2ccc([N+](=O)[O-])cc12 , can you help?
Output line: 9.6

Input line: Looking for the measured selectivity ratio of CN(C)CCCCCOc1nn(Cc2ccccc2)c2ccc([N+](=O)[O-])cc12 , can you help?
Output line: 8

Input line: Looking for the measured selectivity ratio of CNCCOc1nn(Cc2ccccc2)c2ccc([N+](=O)[O-])cc12 , can you help?
Output line: 10.5
